Target: pre-existing anti-scFv903 antibodies in human serum H29 (human)
Test: competition ADA bridging ELISA
endpoint-name: signal change in competition ELISA (% reduction in OD) (%)
Just the number in %, nothing appended.

[Q] Supply reported signal change in competition ELISA (% reduction in OD) belonging to this binder: scFv 961 (scFv) scFv: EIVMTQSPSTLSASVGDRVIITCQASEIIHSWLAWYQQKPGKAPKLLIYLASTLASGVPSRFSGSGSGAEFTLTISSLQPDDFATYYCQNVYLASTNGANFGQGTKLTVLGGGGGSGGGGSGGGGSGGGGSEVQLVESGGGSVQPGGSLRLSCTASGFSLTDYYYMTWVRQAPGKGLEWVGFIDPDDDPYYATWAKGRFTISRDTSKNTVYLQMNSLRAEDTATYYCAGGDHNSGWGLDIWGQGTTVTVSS
[A] -22
